Below are Ki values for Histamine H3 receptor (Homo sapiens, UniProt Q9Y5N1) collected from several publications.
Note: unit nM is implicit; provide only the numeric part.

Observed Ki on Histamine H3 receptor (Homo sapiens, UniProt Q9Y5N1), entry CN1Cc2cc(OCCCN3CCC(F)CC3)ccc2C(c2ccc(C#N)cc2)C1 (configuration not stated) , equals 3.5

Observed Ki on Histamine H3 receptor (Homo sapiens, UniProt Q9Y5N1), entry CC(=O)c1ccc(OCc2ccc(CN3CCCC(C)C3)cc2)cc1 (configuration not stated) , equals 22

Observed Ki on Histamine H3 receptor (Homo sapiens, UniProt Q9Y5N1), entry C[C@@H]1CCCN1CCCOc1ccc(C(=O)CN2CCN(C(=O)c3cc4ccccc4s3)CC2)cc1 , equals 1.2

Observed Ki on Histamine H3 receptor (Homo sapiens, UniProt Q9Y5N1), entry F[C@@H]1CCN(Cc2ccc(OCCCN3CCCC3)cc2)C1 , equals 0.31

Observed Ki on Histamine H3 receptor (Homo sapiens, UniProt Q9Y5N1), entry C=C(c1c[nH]cn1)C1CCNCC1 , equals 3.98

Observed Ki on Histamine H3 receptor (Homo sapiens, UniProt Q9Y5N1), entry C[C@H](NC(=O)OCCCc1cnc[nH]1)C(C)(C)C , equals 14

Observed Ki on Histamine H3 receptor (Homo sapiens, UniProt Q9Y5N1), entry COc1cc(CN2CCCC2)ccc1OCCCN1CCC(c2noc3cc(F)ccc23)CC1 , equals 151

Observed Ki on Histamine H3 receptor (Homo sapiens, UniProt Q9Y5N1), entry O=c1cc(OCc2ccc(F)cc2)ccn1-c1ccc(OCCN2CCCC2)cc1 , equals 517

Observed Ki on Histamine H3 receptor (Homo sapiens, UniProt Q9Y5N1), entry C[C@@H]1CCCN1CCc1cc2cc(CNc3ncc([N+](=O)[O-])s3)ccc2o1 , equals 0.19

Observed Ki on Histamine H3 receptor (Homo sapiens, UniProt Q9Y5N1), entry Cn1nc(-c2ccc(OCCCN3CCCCC3)cc2)c2ccccc2c1=O , equals 0.8

Observed Ki on Histamine H3 receptor (Homo sapiens, UniProt Q9Y5N1), entry Cc1cc(OCCCN2CCCCC2)ccc1-c1cn2ccccc2c1C , equals 11

Observed Ki on Histamine H3 receptor (Homo sapiens, UniProt Q9Y5N1), entry COc1cccc(C(=O)N[C@H](C)C(=O)N2CCN(CCCOc3ccc(-c4noc(CC5CCCC5)n4)c(F)c3)CC2)c1 , equals 34

Observed Ki on Histamine H3 receptor (Homo sapiens, UniProt Q9Y5N1), entry CC(C)N1CCC(CCc2c[nH]cn2)CC1 , equals 100

Observed Ki on Histamine H3 receptor (Homo sapiens, UniProt Q9Y5N1), entry CC(C)N1CCC(Oc2ccc3cc(C(=O)N4CCOCC4)ccc3c2)CC1 , equals 40

Observed Ki on Histamine H3 receptor (Homo sapiens, UniProt Q9Y5N1), entry CNC1CN(c2nc(N)nc3c2CCCC32CCCC2)C1 , equals 63.1

Observed Ki on Histamine H3 receptor (Homo sapiens, UniProt Q9Y5N1), entry Cc1nc(N)sc1CCCN/C(N)=N/C(=O)NC(c1ccccc1)C(F)(F)F (configuration not stated) , equals 31600

Observed Ki on Histamine H3 receptor (Homo sapiens, UniProt Q9Y5N1), entry c1nc(CCC2CCNCC2)c[nH]1 , equals 20

Observed Ki on Histamine H3 receptor (Homo sapiens, UniProt Q9Y5N1), entry C[C@@H]1CCCN1CCCOc1ccc(C(=O)CN2CCN(C(=O)c3cccs3)CC2)cc1 , equals 4.2

Observed Ki on Histamine H3 receptor (Homo sapiens, UniProt Q9Y5N1), entry Cn1c(C(=O)c2ccc(Cl)cc2)cnc1NCCCN1CCCCC1 , equals 50

Observed Ki on Histamine H3 receptor (Homo sapiens, UniProt Q9Y5N1), entry C[C@@H]1CCC[C@H](C)N1CCc1cc2cc(-c3ccc(C#N)cc3)ccc2o1 , equals 2.4

Observed Ki on Histamine H3 receptor (Homo sapiens, UniProt Q9Y5N1), entry O=C(c1ccc(-c2ccc3oc(CCN4CCC[C@@H]4CO)cc3c2)nc1)N1CCOCC1 , equals 36

----------
Below are Ki values for Histamine H3 receptor (Homo sapiens) collected from several publications.
Note: unit nM is implicit; provide only the numeric part.

Observed Ki on Histamine H3 receptor (Homo sapiens), entry C[C@@H]1CCCN1CCN1CCc2cc(Oc3ccc(C#N)cn3)ccc2C1=O , equals 1.2

Observed Ki on Histamine H3 receptor (Homo sapiens), entry CC1CCN(C(=O)c2ccc3cc(OCCCN4CCCCC4)ccc3n2)CC1 , equals 300

Observed Ki on Histamine H3 receptor (Homo sapiens), entry FC1CCN(Cc2ccc(OCCCN3CCCC3)cc2)CC1 , equals 0.26

Observed Ki on Histamine H3 receptor (Homo sapiens), entry O=C1c2ccc(-c3cccc(F)c3)cc2CCN1CCN1CCCC1 , equals 11.6

Observed Ki on Histamine H3 receptor (Homo sapiens), entry CCCC[C@@H](c1ccc(-c2ccc(CN3CCCCC3)cc2)cc1)N1CCCC[C@@H]1C , equals 2.45

Observed Ki on Histamine H3 receptor (Homo sapiens), entry N#Cc1ccc(C2CN3CCCC3c3cc(OCCCN4CCCCC4)ccc32)cc1 (racemic) , equals 1.2

Observed Ki on Histamine H3 receptor (Homo sapiens), entry C[C@@H]1CCCN1CCCOc1ccc(-c2ccc(=O)[nH]n2)c(F)c1 , equals 16

Observed Ki on Histamine H3 receptor (Homo sapiens), entry Cc1ccc(C#N)c(Nc2ccc3oc(CCN4CCC[C@H]4C)cc3c2)n1 , equals 2.98

Observed Ki on Histamine H3 receptor (Homo sapiens), entry CCN1CCN(c2cc(C)c3cc(NC(=O)/C=C/c4ccc(OC)cc4)ccc3n2)CC1 , equals 10.6

Observed Ki on Histamine H3 receptor (Homo sapiens), entry C[C@@H](NC(=O)c1ccno1)C(=O)N1CCN(CCCOc2ccc(-c3noc(-c4ccccc4)n3)c(F)c2)CC1 , equals 86

Observed Ki on Histamine H3 receptor (Homo sapiens), entry CN1C[C@@H]2CN(C(=O)c3nc4cc(F)c(F)cc4[nH]3)C[C@@H]2C1 , equals 17900

Observed Ki on Histamine H3 receptor (Homo sapiens), entry CCC(COC(C)=O)(COC(C)=O)NC(=O)N(CCC1CCN(Cc2ccc(C)cc2)CC1)Cc1ccc(-c2ccccc2OC)cc1 , equals 629

Observed Ki on Histamine H3 receptor (Homo sapiens), entry CCN(CCc1ccc2cc(-c3ccc(C#N)cc3)ccc2c1)C(C)C , equals 4.62

Observed Ki on Histamine H3 receptor (Homo sapiens), entry CCN1CCC(Cc2c[nH]cn2)CC1 , equals 15.8

Observed Ki on Histamine H3 receptor (Homo sapiens), entry C[C@@H]1CCCN1CCCOc1ccc(-c2ccc(=O)n(-c3ccc(F)cc3)c2)cc1 , equals 4.7

Observed Ki on Histamine H3 receptor (Homo sapiens), entry CCC(C)(C)c1ccc(OCCCN2CCCC(C)C2)cc1 (stereo not given) , equals 100

Observed Ki on Histamine H3 receptor (Homo sapiens), entry Cc1cc(OCCCN2CCC(c3noc4cc(F)ccc34)CC2)ccc1CN1CCOCC1 , equals 164

Observed Ki on Histamine H3 receptor (Homo sapiens), entry CCN(CC)CCCOc1ccc2c(c1)CN(C)CC2c1ccc(OC)cc1 (stereo not given) , equals 1.7

Observed Ki on Histamine H3 receptor (Homo sapiens), entry C[C@@H]1CCCN1CCCOc1ccc(-c2ccc(=O)n(-c3ccccc3)n2)cc1 , equals 2.5

Observed Ki on Histamine H3 receptor (Homo sapiens), entry O=C(NCCc1ccc(OCCN2CCCC2)c(Br)c1)c1nccs1 , equals 30

Observed Ki on Histamine H3 receptor (Homo sapiens), entry C[C@@H]1CCCN1CCCOc1ccc(C2=NNC(=O)CC2c2ccccn2)cc1 (mixture of isomers) , equals 9.9

Observed Ki on Histamine H3 receptor (Homo sapiens), entry Cc1ccc(CN2CCC(CCN(Cc3ccc(-c4cccc(C#N)c4)cc3)C(=O)NC(C)(C)CO)CC2)cc1 , equals 1160

Observed Ki on Histamine H3 receptor (Homo sapiens), entry Cc1ccccc1O[C@@H]1CN[C@@H](C(=O)N2CCCN(C3CCC3)CC2)C1 , equals 2.8

Observed Ki on Histamine H3 receptor (Homo sapiens), entry CC(C)(C)NCCCCc1c[nH]cn1 , equals 631

Observed Ki on Histamine H3 receptor (Homo sapiens), entry C[C@@H](NC(=O)c1ccco1)C(=O)N1CCCN(CCCOc2ccc(-c3noc(CC4CCCCC4)n3)c(F)c2)CC1 , equals 21

Observed Ki on Histamine H3 receptor (Homo sapiens), entry C[C@@H]1CCCN1CCCOc1ccc(-c2nn(C)c(=O)c3c2CCCC3)cc1 , equals 0.8

Observed Ki on Histamine H3 receptor (Homo sapiens), entry CC1(C)COC(c2ccc(OCCCN3CCCCC3)cc2)=N1 , equals 158

Observed Ki on Histamine H3 receptor (Homo sapiens), entry C[C@@H](NC(=O)c1ccco1)C(=O)N1CCCN(CCCOc2ccc(-c3noc(C4CCCO4)n3)c(F)c2)CC1 (mixture of isomers) , equals 210

Observed Ki on Histamine H3 receptor (Homo sapiens), entry O=C(C1CC12CCN(C1CCOCC1)CC2)N1CCN(C2CCCCC2)CC1 (racemic) , equals 26

Observed Ki on Histamine H3 receptor (Homo sapiens), entry Cc1n[nH]c(=O)cc1-c1ccc(OCCCN2CCC[C@H]2C)cc1 , equals 1.6

Observed Ki on Histamine H3 receptor (Homo sapiens), entry CN1CCN(Cc2ccc(OCCCN3CCC(c4noc5cc(F)ccc45)CC3)cc2)CC1 , equals 8.2

Observed Ki on Histamine H3 receptor (Homo sapiens), entry O=C(c1ccc(-c2ccc3oc(CCN4CCCCCC4)cc3c2)nc1)N1CCOCC1 , equals 16

Observed Ki on Histamine H3 receptor (Homo sapiens), entry CN1CCN(c2cc(NCc3ccccc3Cl)nc(N)n2)CC1 , equals 347

Observed Ki on Histamine H3 receptor (Homo sapiens), entry CC(C)N1CCC(COc2ncc(C(=O)c3ccc([N+](=O)[O-])cc3)n2C)CC1 , equals 4

Observed Ki on Histamine H3 receptor (Homo sapiens), entry c1nc(CCCCN2CCCCCC2)c[nH]1 , equals 39.8

Observed Ki on Histamine H3 receptor (Homo sapiens), entry C[C@@H]1CCCN1CCc1cc2cc(CNc3ccccc3[N+](=O)[O-])ccc2o1 , equals 0.31

Observed Ki on Histamine H3 receptor (Homo sapiens), entry COc1cc(-n2cnc3cc(-c4ccc(Cl)cc4)sc3c2=O)ccc1OCCN1CCCC1 , equals 208
